System: A549 cells
ASSAY_EXPLANATION: MTT antiproliferative assay, A549
Type: cell-based, human
CONDITION_INFO: Homo sapiens, read-out: In vitro antiproliferative activity IC50, A549
Protocol: IC50 values of the test compounds against A549, MCF-7, Hela and HepG2 cells were obtained from State Key Laboratory of Pharmaceutical Biotechnology, Nanjing University, and were determined by a standard (MTT)-based colorimetric assay (Beyotime Inst. Biotech., Nanjing, China). […] Optical absorbance was measured at 570 nm on a microplate reader (Bio-Rad, Hercules, CA, USA). […]
# pIC50 per entry
Recall that pIC50 is obtained by taking minus log10 of the concentration measured in molar.

Reported pIC50 (A549 cells) for entry COc1ccc(/C=N/NC(=O)c2ccc(N3N=C(c4cc(F)cc(F)c4)CC3c3ccc4ccccc4c3)cc2)cc1 (stereo not drawn) is 4.40

Record CCOc1ccc(C2=NN(c3ccc(C(=O)N/N=C/c4ccc(OC)cc4)cc3)C(c3ccc4ccccc4c3)C2)cc1 (stereo not drawn) ; system A549 cells; pIC50 = 5.00

More entries:
Reported A549 cells pIC50 for item COc1cccc(/C=N/NC(=O)c2ccc(N3N=C(c4cc(OC)c(OC)c(OC)c4)CC3c3ccc4ccccc4c3)cc2)c1 (stereo not drawn) was 4.11

====

Test system: MCF-7 cells
ASSAY_EXPLANATION: MTT antiproliferative assay, MCF-7
Assay type: cell-based, human
CONDITION_INFO: Homo sapiens, MCF7, read-out: In vitro antiproliferative activity IC50, MCF-7
EXPERIMENTAL_ENDPOINT: pIC50
// pIC50 is dimensionless: -log10 of concentration (M)

Known results for compounds:
pIC50 recorded for this compound, COc1cccc(/C=N/NC(=O)c2ccc(N3N=C(c4cccc(Cl)c4)CC3c3ccc4ccccc4c3)cc2)c1 (stereo not shown) [Compound H13] , is 4.29

So for COc1cccc(/C=N/NC(=O)c2ccc(N3N=C(c4ccc(Br)cc4)CC3c3ccc4ccccc4c3)cc2)c1 (stereo not shown) [Compound H16] , the logged pIC50 turned out to be 4.50

Summary for this compound, COc1ccc(/C=N/NC(=O)c2ccc(N3N=C(c4ccc(Br)cc4)CC3c3ccc4ccccc4c3)cc2)cc1 (stereo not shown) [Compound H32] : pIC50 is 4.52

Switching to the query record.
Query COc1cccc(/C=N/NC(=O)c2ccc(N3N=C(c4ccc(F)cc4)CC3c3ccc4ccccc4c3)cc2)c1 (stereo not shown) [Compound H11] yields pIC50 of 4.22

====

Recorded melting point for the following molecules

Recorded result, COc1cccc(/C=N/NC(=O)c2ccc(N3N=C(c4cc(F)cc(F)c4)CC3c3ccc4ccccc4c3)cc2)c1 (stereo not shown) [Compound H12] , melting point: 225 to 227 °C

Lab note: COc1cccc(/C=N/NC(=O)c2ccc(N3N=C(c4cccc(Cl)c4)CC3c3ccc4ccccc4c3)cc2)c1 (stereo not shown) [Compound H13] gave melting point of 231 to 233 °C

// melting point value for COc1cccc(/C=N/NC(=O)c2ccc(N3N=C(c4ccc(Cl)cc4)CC3c3ccc4ccccc4c3)cc2)c1 (stereo not shown) [Compound H14] : 236 to 238 °C

Next:
Input COc1ccc(/C=N/NC(=O)c2ccc(N3N=C(c4cc(F)cc(F)c4)CC3c3ccc4ccccc4c3)cc2)cc1 (stereo not shown) [Compound H28] . Output melting point: 238 to 240 °C
